Tested on: K562
Assay: NCI tumour cell line growth inhibition, 48 h
Calls of active or inactive are those of the source. Rule as the data show it: active = GI50 up to about 1.1 µM and inactive = higher. Where a SMILES comes first, the peptide text is derived from it. [ ]: non-standard residue; d: D form. Ac5c = NC1(C(=O)O)CCCC1
Possible outcomes: true (1) for active, false (0) for inactive

>>> qualitative_label("COc1ccc(-n2c(CCC(=O)O)nc3c2C(=O)c2ccccc2C3=O)cc1")
"false (0)"
>>> qualitative_label("O=C1c2ccccc2-c2ccc(NC(=O)C3CCCCC3C(=O)O)cc21 (stereo unspecified)")
"false (0)"
>>> qualitative_label("c1cnc2c(c1)-n1cccc1C1(CCOCC1)NN2")
"false (0)"
>>> qualitative_label("N=C(N)NS(=O)(=O)c1ccc(NC(=O)c2cccc3c(Nc4ccc(S(=O)(=O)N=C(N)N)cc4)c4ccccc4nc23)cc1")
"false (0)"
>>> qualitative_label("COC1/C=C\\C=C(/C)C(=O)Nc2cc3nc4ccc(Br)cc4oc-3c(c2=O)CC(C)CC(OC)C(O)C(C)/C=C(\\C)C1OC(N)=O (stereo unspecified)")
"true (1)"
>>> qualitative_label("CN(C)CCNC(=O)c1cccc2c(=O)c3ccccc3oc12")
"false (0)"
>>> qualitative_label("COc1ccc(CNc2cnc3ccc(N)cc3n2)cc1")
"false (0)"
>>> qualitative_label("NC1=NN(c2ccccc2)C2(c3ccncc3C(=O)O)C1C(N)=NN2c1ccccc1 (stereo unspecified)")
"false (0)"
>>> qualitative_label("OCC1OC2c3ccccc3COC2C1OCc1ccccc1 (stereo unspecified)")
"false (0)"
>>> qualitative_label("Nn1c(CCCCCCCCc2nnc(COc3ccc4ccccc4c3O)n2N)nnc1COc1ccc2ccccc2c1O")
"false (0)"
>>> qualitative_label("C[N+](C)(C)CCOP(=O)([O-])OCCNC(=O)c1ccc2ccccc2c1")
"false (0)"
>>> qualitative_label("NC1(CCCCCCCCCCC(=O)O)CNCCNCCNCCNC1")
"false (0)"
>>> qualitative_label("CC(=O)c1nc2ccccc2n1C(C)C(=O)c1ccccc1 (stereo unspecified)")
"false (0)"
>>> qualitative_label("CC12CO[C@@](C)(CC(S(=O)(=O)c3ccccc3)C1)O2 (stereo partly specified)")
"false (0)"
>>> qualitative_label("C=C1C(=O)C2=CC1CCC(=O)C1(C)CCC(OC(C)=O)C(C)(C)C1CC2O (stereo unspecified)")
"true (1)"
>>> qualitative_label("O=C(O)COc1ccc(C(=O)/C(SS/C(C(=O)c2ccc(OCC(=O)O)c(Cl)c2Cl)=C2\\C=C(c3ccc(F)cc3)SS2)=C2/C=C(c3ccc(F)cc3)SS2)c(Cl)c1Cl")
"false (0)"
>>> qualitative_label("CN(C)CCNC(=O)c1cccc2[nH]c(-c3cccnc3)nc12")
"false (0)"
>>> qualitative_label("COc1ccc(OC)c(-c2nc3n(c2/C=C2/C(=O)Nc4ccccc42)CCS3)c1")
"false (0)"
>>> qualitative_label("[O-][S+]1c2ccccc2N=C(c2ccc3ccccc3c2)CC1C1=CC=CCC1 (stereo unspecified)")
"false (0)"
>>> qualitative_label("Cc1nc2nnnn2c2c1C(=O)Nc1ccccc1N2")
"false (0)"
>>> qualitative_label("O=C(NCCCC/N=c1/cccccc1NCCCCNC(=O)OCc1ccccc1)OCc1ccccc1")
"false (0)"
>>> qualitative_label("O=c1n(-c2ccccc2)c(=O)n2n1C1C=CC2C2C(C1)C2(Cl)Cl (stereo unspecified)")
"false (0)"
>>> qualitative_label("CC#CC#C/C(=C/C=CC(=O)OC)SC")
"false (0)"
>>> qualitative_label("CC1(C)O[C@@H](CCl)C[C@H](C#N)O1")
"false (0)"
>>> qualitative_label("C/C(=N\\Nc1nc2cc(Cl)ccc2s1)c1ccccn1")
"true (1)"
>>> qualitative_label("Clc1cccc(Cl)c1C1SCc2nc3ccccc3n21 (stereo unspecified)")
"false (0)"
>>> qualitative_label("Cc1c(Cl)c(S(N)(=O)=O)cc2c1N=CNS2(=O)=O")
"false (0)"
>>> qualitative_label("COc1ccc(NC(C(N)=O)c2cc3cc(Br)ccc3nc2Cl)cc1 (stereo unspecified)")
"false (0)"
>>> qualitative_label("CC1=Nn2c(nnc2-c2ccc(Cl)cc2)NC(C)(C)C1")
"false (0)"
>>> qualitative_label("CCOC(=O)/C(=C\\c1ccc(N(CCC#N)CCC#N)cc1C)NC(=O)/C=C/c1ccccc1")
"false (0)"
>>> qualitative_label("NC1(C(=O)NC2(C(=O)O)CCCC2)CCCC1 (H-[Ac5c]-[Ac5c]-OH)")
"false (0)"

All values here come from ChEMBL document CHEMBL1201862.
